Entries and their measured CC50 at 24 h follow.
# experiment: in vitro

CC(=O)OCC1OC(Oc2cc(O)c3c(=O)c(-c4ccc(O)cc4)coc3c2)C=CC1OC1OC(COC(C)=O)C(OC(C)=O)C(OC(C)=O)C1OC(C)=O (centres unmarked): 11 µM

// query GET /values?readout=CC50 at 24 h&item= CC(C)Oc1ccc(-c2coc3cc(O)cc(O)c3c2=O)cc1
// result > 30 µM

// query Can you check CC(C)(C)OC(=O)COc1ccc(-c2coc3cc(O)cc(O)c3c2=O)cc1 next?
// result 20.3 µM

// query Can you check O=c1c(-c2ccc(O)cc2)coc2cc(OCCCO)cc(O)c12 next?
// result > 30 µM

// query Can you check C=CCOc1cc(O)c2c(=O)c(-c3ccc(OC(=O)c4ccccc4OC(C)=O)cc3)coc2c1 next?
// result 15.8 µM

// query Can you check COc1ccc(COc2cc(O)c3c(=O)c(-c4ccc(O)cc4)coc3c2)cc1 next?
// result 12.1 µM

// query Can you check C=CCOc1ccc(-c2coc3cc(OCC=C)cc(O)c3c2=O)cc1 next?
// result 22.6 µM

// query Can you check COC(=O)COc1cc(O)c2c(=O)c(-c3ccc(O)cc3)coc2c1 next?
// result > 30 µM

Data origin, for the record: patent US20140107051A1
